Cited source for all entries: the DeepSol protein solubility set

# EXPERIMENT_NOTES: soluble on expression in E. coli; label from the status in PepcDB or PDB records
MEASURED_METRIC: soluble on expression in E. coli

BIOSEQUENCE: LLTLSDIGLSVHRYSNRLDVFTQALEGGKALGDVSVDVYDDNGKVVAQGKTDSDGHARLPLPAKAAVVLAHKDEQTSMLRLNSSALDLAEFDISGPQAHPLQFFIFGPRDLYRPGETVLLNGLLRDSDGKNVKPQPITVEVRRPDDQVSRKFVWEADSSGFYQYQLQLAEEAPTGRWQLVFDLGDGKPQLYEFKVEDFLPERLALELKGSDAPVAPADNPEFDITGRYLYGAPASGNTLTGQVYVRPLREAVAKLPGYQFGSITE
MEASURED_METRIC: soluble on expression in E. coli
RESULT: not soluble
//
BIOSEQUENCE: MVSFTKDQIADIIRKVGDGTSPEALESAVRNVLAKLQSEGLSAPASQGGKLDASSYPLGIKRKDLVKSATGLGLDDITIEKVVSGEIQFDDIKTRPETLAYQNEIAKSVNRPNLANNLARAGEMTRIPDARLLEMYNFLRPYRAAKQEMISMAEELEQKYQAPACAKLVREAADVYEKNNRLKGDR
MEASURED_METRIC: soluble on expression in E. coli
RESULT: not soluble

====

# EXPERIMENT_NOTES: soluble on expression in E. coli; label from the status in PepcDB or PDB records
MEASURED_METRIC: soluble on expression in E. coli

BIOSEQUENCE: MEDENILRNAVNLQVLKFHYPEIESIIDIASHVAVYQFDVGSQKWLKTSIEGTFFLVKDQRARVGYVILNRNSPENLYLFINHPSNVHLVDRYLIHRTENQHVVGLWMFDPNDMSRIFNIVKESLLR
RESULT: soluble
--
BIOSEQUENCE: MDVKMKGIVRVVPYDPEWKTEFLKIKAMIVDCAGDLIIDVVHVGSTAIEGLASKPIIDIDVVIDSYYVFPAVKDRLAKIGFEHEGNLGVEGREAFKRTFVDDFMPYHLYICPKDGKGYLEHIAFRNYLRDHPEAVKAYGELKMRLAEQFRTDITSYVNAKREFVQNVLKKINS
RESULT: soluble
--
BIOSEQUENCE: ASMTGGQQMGRGSASLPACPEESPLLVGPMLIEFNMPVDLELVAKQNPNVKMGGRYAPRDCVSPHKVAIIIPFRNRQEHLKYWLYYLHPVLQRQQLDYGIYVINQAGDTIFNRAKLLNVGFQEALKDYDYTCFVFSDVDLIPMNDHNAYRCFSQPRHISVAMDKFGFSLPYVQYFGGVSALSKQQFLTINGFPNNYWGWGGEDDDIFNRLVFRGMSISRPNAVVGTTRHIRHSRDKKNEPNPQRFDRIAHTKETMLSDGLNSLTYQVLDVQRYPLYTQITVDIGTPS
RESULT: soluble
--
BIOSEQUENCE: DSRGCARWCPQDSSCVNATACRCNPGFSSFSEIITTPMETCDDINECATLSKVSCGKFSDCWNTEGSYDCVCSPGYEPVSGAKTFKNESENTCQDVDECSSGQHQCDSSTVCFNTVGSYSCRCRPGWKPRHGIPNNQKDTVCE
RESULT: soluble
--
BIOSEQUENCE: MKITTWNVNSLNVRLPQVQNLLADNPPDILVLQELKLDQDKFPAAALQMMGWHCVWSGQKTYNGVAIVSRSVPQDVHFGLPALPDDPQRRVIAATVSGVRVINVYCVNGEALDSPKFKYKEQWFAALTEFVRDEMTRHGKLVLLGDFNIAPADADCYDPEKWHEKIHCSSVERQWFQNLLDLGLTDSLRQVHPEGAFYTWFDYRGAMFQRKLGLRIDHILVSPAMAAALKDVRVDLETRALERPSDHAPVTAEFDW
RESULT: soluble
--
BIOSEQUENCE: MGSDKIHHHHHHMNDQLTEYRIKKAPYYRATGDETELYEAAYSVRMPMMLKGPTGCGKTRFVEYMAYKLGKPLITVACNEDMTASDLVGRFLLDPQGTRWQDGPLTLAARLGAICYLDEVVEARQDTTVVIHPLTDNRRVLPLEKKGELVQAHPDFQLVISYNPGYQSLMKDLKQSTKQRFGALDFNYPDHEIEAEIVSHETGVNKEVADKLVSIAERARNLKGHGLDEGISTRMLVYAGSLINKGVEAKAACRVTLVRPITDDPDMRDALDAAVTTYF
RESULT: not soluble
--
BIOSEQUENCE: MSLYLFGESDHYLWLPRGLLYPLQDKFKQVSVEDRRKVQRSISVEFKGELTFEQELALSDMTSKENGLLHAETGFGKTVLGAALISERKTKTIILVHNKQLLDQWLDRLNCFLTFEEEEAIRYTASGREKVIGYVGQYGGTKKWLSKLVDVVMIQSLFKLENSQSLLDEYEMMIVDECHHVSALMFEKVVAQFRGKYLYGLTATPERKNGHEPIVFQRIGEILHTADKREGHHHHHH
RESULT: not soluble
--
BIOSEQUENCE: MKRTVTVKLQPSKAQEETLKELAIISSKAWNKVNYLRRQEFFEGKPVDFLKTEKIVYEEFKSEIGSATVQQICRKNADAWRSFFSLIRSKRNGELPKWFKPKPPEYVKEGGLIILRNDQYKIEGNKLILKGLGKFKRLEVQFKGRIHLKGKQGRLEITFDPIRRKWYAHISYTVKEKLYGGEWVEVLRQPLGNLSAGIDLGVNNLMAVYVENGESFLVNGRPLKSIDFYWRKRIAEYQSKLNKSGVKKGRKLSKMHQKAKLQAKHYINTAIRRTVEKLYHLGVSRIVVGYPKGISRNSDKGKKQNYLLSHVWRFNYVIKRLREVAEEYGIQVLIVDEAFTSKLCPVCGKPHKGQGLFEDYLSVPRRGLPLMPTWLELSTFLEHHHHHH
RESULT: soluble
--
BIOSEQUENCE: MIMSKIKLTKNDLKKQKDELKMFKRYLPTLQLKKQQLYMEIVKIENSYKIKNLEQQKLKENISNWISLFSEKFPFESWIQVKTVVKKSLNIAGVAIPIFDSIEYEDIRHDLLFTPYWVDKGIEILKVVIQIDVELKILKKQIDLLLREFRITSQRVNLFEKVMIPTAKANIKKINIYLGDQQTAAVVRGKIAKSSLIKKNRNSLLEHHHHHH
RESULT: not soluble
--
BIOSEQUENCE: ENRDCYSLYRMNPADGKIQQLEVSEDLVNSFSLAQNAPVMVYYGQSASNSDRLYTMNTKKMKSSLLEDLSKDILKDVELGECKAWSFTNSRGDTIYGRYYLPPHFDANRKYPMIVNYYGGCSPVSRNFESRYPHHAYAALGYVVYVIEPSGATGFGQEFSARHVNTAGEGVAQDIIEGTKQFCKEHAFVNDKKIGCIGASYGGFMTQYLQTQTDIFAAAISHAGISDHTSYWGEGYWGYSYSEVSMANSYPWSNPDLFVKQSPLFNADKIHTPLLFLHGDADVNVPVGESIQMFTALKLLGRETAFVAVTGQDHHIVDYGKRIQWQNTIFAWFAKWLQ
RESULT: not soluble
--
BIOSEQUENCE: SKEDCLPSSHVPISDSKSIQKSELLGLLKTYNCYHEGKSFQLRHREEEGTLIIEGLLNIAWGLRRPIRLQMQDDREQVHLPSTSWMPRRPSCPLKEPSPQNGNITAQGPSIQPVHKAESSTDSSGPLEEAEEAPQLMRTKSDASCMSQRRPKCRAPGEAQRIRRHRFSINGHFYNHKTSVFTPAYGSVTNVRVNSTMTTLQVLTLLLNKFRVEDGPSEFALYIVHESGERTKLKDCEYPLISRILHGPCEKIARIFLMEADLGVEVPHEVAQYIKFEMPVLDSFVEKLKEEEEREIIKLTMKFQALRLTMLQRLEQLVEAK
RESULT: soluble
